Test system: HOP-62
Assay: NCI tumour cell line growth inhibition, 48 h
Activity calls are given as the source filed them. Rule as the data show it: active = GI50 up to about 1.1 µM and inactive = higher.
readout-label: GI50

input: Fill in the blank: the reported GI50 of Clc1ccc(OCc2nnc3n2N=C(c2ccccc2)CS3)c(Cl)c1 is ____.
output: > 10 µM (inactive)

input: // next record Cc1ccc(/C=C2\CN(C)CC3C(c4ccc(C)cc4)=C(C#N)C(=O)NC23)cc1 (stereo not given)
output: > 50 µM (inactive)

input: // next record CC(=O)c1ccccc1NC(=O)C(=O)C(C(=O)c1ccccc1-c1ccccc1)C1OC(=O)c2ccccc21 (stereo not given)
output: 20.1 µM (inactive)

input: // next record O=C1NC(N2CCCCC2)=N/C1=C\c1ccccc1O
output: > 100 µM (inactive)

input: // next record COc1cc(C(C#N)NNC(=O)Cc2ccccc2)cc(OC)c1OC (stereo not given)
output: > 100 µM (inactive)

----------
Provide the reported GI50 of each item.
Tested on: RPMI-8226
Assay: NCI tumour cell line growth inhibition, 48 h
Activity calls are given as the source filed them. No stated cut-off is given here; in the data, active = GI50 up to about 1.1 µM and inactive = higher.

input: Fill in the blank: the reported GI50 of CC1=CC(=O)/C(=C/NC(=S)Nc2ccccc2)C(=O)O1 is ____.
output: > 100 µM (inactive)

input: // next record CC1=CP(=O)(OC(C)C)C=C(C)C1=C(Cl)Cl (stereo not given)
output: 32.7 µM (inactive)

input: // next record O=C(NCCCCNCCCNC(=O)c1cc(-c2ccccc2)nc2ccccc12)c1cc(-c2ccccc2)nc2ccccc12
output: 2.5 µM (inactive)

input: // next record O=c1cc(NNc2cccc3ccccc23)[nH]c(=O)[nH]1
output: 5.53 µM (inactive)

input: // next record c1ccc2c(c1)[nH]c1nc3cc(-c4ccc5nc6c(nc5c4)[nH]c4ccccc46)ccc3nc12
output: 38 µM (inactive)

input: // next record CC(=O)NC1C(OCc2ccccc2)OC(CO)C(O)C1OCC(=O)NC(C)C(=O)NC(CCC(=O)OCCNC(=O)c1cccc2cc3ccccc3nc12)C(N)=O (stereo not given)
output: 1.33 µM (inactive)

input: // next record COc1ccc2c(c1)nc1n2C(c2c(Cl)cccc2Cl)SC1 (stereo not given)
output: > 23.5 µM (inactive)

input: // next record CCOC(=O)C1CCC(=O)N1C(=O)c1cccc(Cl)c1 (stereo not given)
output: > 100 µM (inactive)

input: // next record CC(O)C(O)C(N)CC=O (stereo not given)
output: > 500 µM (inactive)

input: // next record COc1ccc(N2C(=O)C3c4[nH]c5ccccc5c4C4CC(C)(C)CC(C)(C)C4C3C2=O)cc1 (stereo not given)
output: 31.8 µM (inactive)

----------
System: IGROV-1
Assay: NCI tumour cell line growth inhibition, 48 h
The source made the active and inactive calls. Rule as the data show it: active = GI50 up to about 1.1 µM and inactive = higher.
Hi there, use one of these labels in your reply, thanks! y for active, n for inactive

input: Please share the test call associated with COc1cc2c(cc1OC)C(Cl)C(c1ccc(F)cc1)=C2Cl (stereo not given) .
output: n

input: // next record CN(C)CCCNc1ccc2nnn3c4ccc(OC(=O)c5ccccc5)cc4c(=O)c1c23
output: n

input: // next record O=C1C[C@H](Sc2ccccc2)C2(OCCO2)[C@H]2ON3CCC[C@@H]3[C@@H]12
output: y

input: // next record COc1cc(CCNC2=CC(=O)c3cccnc3C2=O)ccc1O
output: n

input: // next record COc1cc(Nc2nc3cc(C(F)(F)F)ccc3n3cccc23)cc(OC)c1OC
output: n
